# target: Pleiotropic ABC efflux transporter of multiple drugs (Saccharomyces cerevisiae S288c)
# Sequence (P33302 whole entry): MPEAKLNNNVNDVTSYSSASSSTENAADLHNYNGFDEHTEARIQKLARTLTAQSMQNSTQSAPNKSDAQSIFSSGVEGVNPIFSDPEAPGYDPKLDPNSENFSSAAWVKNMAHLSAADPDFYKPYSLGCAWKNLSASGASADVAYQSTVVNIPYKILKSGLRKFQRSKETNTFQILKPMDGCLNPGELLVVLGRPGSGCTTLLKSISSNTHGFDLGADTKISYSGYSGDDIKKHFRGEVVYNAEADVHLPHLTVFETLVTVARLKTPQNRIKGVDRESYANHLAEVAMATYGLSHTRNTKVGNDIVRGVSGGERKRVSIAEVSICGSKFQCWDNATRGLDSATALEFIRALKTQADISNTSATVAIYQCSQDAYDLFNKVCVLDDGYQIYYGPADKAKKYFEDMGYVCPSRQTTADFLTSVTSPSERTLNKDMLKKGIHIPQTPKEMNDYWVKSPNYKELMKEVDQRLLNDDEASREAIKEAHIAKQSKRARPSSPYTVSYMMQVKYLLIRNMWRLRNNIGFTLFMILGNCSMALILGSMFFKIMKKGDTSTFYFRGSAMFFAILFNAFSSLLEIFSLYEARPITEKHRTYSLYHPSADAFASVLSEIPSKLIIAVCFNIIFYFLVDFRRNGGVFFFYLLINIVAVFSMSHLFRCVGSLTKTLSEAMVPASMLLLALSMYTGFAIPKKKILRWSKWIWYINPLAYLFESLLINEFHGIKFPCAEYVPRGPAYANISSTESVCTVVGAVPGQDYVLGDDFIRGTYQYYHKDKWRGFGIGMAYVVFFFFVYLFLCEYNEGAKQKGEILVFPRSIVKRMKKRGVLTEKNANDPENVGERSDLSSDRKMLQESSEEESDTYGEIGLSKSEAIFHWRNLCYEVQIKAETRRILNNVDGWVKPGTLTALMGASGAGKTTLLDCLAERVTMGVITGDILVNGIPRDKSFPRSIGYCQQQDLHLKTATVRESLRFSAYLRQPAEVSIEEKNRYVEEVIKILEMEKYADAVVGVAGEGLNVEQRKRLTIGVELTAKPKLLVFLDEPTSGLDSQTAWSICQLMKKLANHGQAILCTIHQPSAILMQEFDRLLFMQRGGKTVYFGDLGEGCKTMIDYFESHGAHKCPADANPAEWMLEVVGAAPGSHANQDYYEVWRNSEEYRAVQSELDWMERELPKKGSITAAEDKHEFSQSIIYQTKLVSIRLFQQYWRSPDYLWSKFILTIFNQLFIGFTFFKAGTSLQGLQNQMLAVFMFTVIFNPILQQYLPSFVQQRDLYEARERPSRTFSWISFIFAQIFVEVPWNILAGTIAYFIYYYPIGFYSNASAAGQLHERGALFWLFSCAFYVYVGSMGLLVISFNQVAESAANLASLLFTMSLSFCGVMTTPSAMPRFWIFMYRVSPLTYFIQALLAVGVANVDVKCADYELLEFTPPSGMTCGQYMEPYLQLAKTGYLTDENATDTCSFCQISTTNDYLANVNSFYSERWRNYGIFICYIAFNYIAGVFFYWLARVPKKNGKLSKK
# method.summary: Inhibition of Pdr5p-mediated rhodamine 6G transport in Saccharomyces cerevisiae MKPDR5h plasma membrane by spectrofluorometric assay
pIC50: −log10 of the molar value.
Overview of reported pIC50 across a group of compounds:
property.name: pIC50

compound: NCCCN1c2ccccc2Sc2ccc(C(F)(F)F)cc21
property.name: pIC50
sign: =
value.measured: 5.19
--
compound: CN(C)CCCN1c2ccccc2Sc2ccc(C(F)(F)F)cc21
property.name: pIC50
sign: =
value.measured: 5.31
--
compound: CN(C)CC/C=C1/c2ccccc2Sc2ccc(Cl)cc21
property.name: pIC50
sign: =
value.measured: 5.29
--
compound: CN1CCN(CCCN2c3ccccc3Sc3ccc(C(F)(F)F)cc32)CC1
property.name: pIC50
sign: =
value.measured: 5.85
--
compound: CCN(CC)CCN1c2ccccc2Sc2ccccc21
property.name: pIC50
sign: =
value.measured: 4.99
--
compound: O=C(O)CCCCCCNC1c2ccccc2CCc2ccccc21
property.name: pIC50
sign: <
value.measured: 3.40
--
compound: CC(CN1c2ccccc2Sc2ccccc21)N(C)C (configuration not stated)
property.name: pIC50
sign: =
value.measured: 4.75
--
compound: NCCCN1c2ccccc2Sc2ccccc21
property.name: pIC50
sign: =
value.measured: 5.13
--
compound: CN(C)CCCN1c2ccccc2Sc2ccc(Cl)cc21
property.name: pIC50
sign: =
value.measured: 5.35
--
compound: CCSc1ccc2c(c1)N(CCCN1CCN(C)CC1)c1ccccc1S2
property.name: pIC50
sign: =
value.measured: 5.64
--
compound: CN(C)CCCN1c2ccccc2Sc2ccccc21
property.name: pIC50
sign: =
value.measured: 4.95
--
compound: COc1ccc2c(c1)N(C[C@@H](C)CN(C)C)c1ccccc1S2
property.name: pIC50
sign: =
value.measured: 5.05
--
compound: NCCCCN1c2ccccc2Sc2ccc(C(F)(F)F)cc21
property.name: pIC50
sign: =
value.measured: 5.89
--
compound: NCCCCN1c2ccccc2Sc2ccccc21
property.name: pIC50
sign: =
value.measured: 5.51
--
compound: c1ccc2c(c1)Nc1ccccc1S2
property.name: pIC50
sign: <
value.measured: 3.40
--
compound: CN1CCN(CCCN2c3ccccc3Sc3ccc(Cl)cc32)CC1
property.name: pIC50
sign: =
value.measured: 5.77
--
compound: NCCCCN1c2ccccc2Sc2ccc(Cl)cc21
property.name: pIC50
sign: =
value.measured: 6.15
--
compound: OCCN1CCN(CCCN2c3ccccc3Sc3ccc(C(F)(F)F)cc32)CC1
property.name: pIC50
sign: =
value.measured: 5.77
--
compound: CN(C)CCCN1c2ccccc2CCc2ccccc21
property.name: pIC50
sign: =
value.measured: 4.66
--
compound: NCCCN1c2ccccc2Sc2ccc(Cl)cc21
property.name: pIC50
sign: =
value.measured: 5.49
--
compound: OCCN1CCN(CCCN2c3ccccc3Sc3ccc(Cl)cc32)CC1
property.name: pIC50
sign: =
value.measured: 5.85
--
compound: COc1ccc2c(c1)N(C[C@H](C)CN(C)C)c1ccccc1S2
property.name: pIC50
sign: =
value.measured: 5.02

====

# target: Pleiotropic ABC efflux transporter of multiple drugs (Saccharomyces cerevisiae S288c)
# method.summary: Inhibition of Saccharomyces cerevisiae MKPDR5h multidrug transporter Pdr5p assessed as concentration required to threefold increase in rate of fluorescence signal relative to absence of inhibitor by fluorescein diacetate based high-throughput screening spectrofluorometric assay
property.name: INH (µM)

smiles.string: OCCN1CCN(CCCN2c3ccccc3Sc3ccc(C(F)(F)F)cc32)CC1
u: µM
value.measured: 5.4
--
smiles.string: CN(C)CCCN1c2ccccc2Sc2ccccc21
u: µM
value.measured: 96
--
smiles.string: COc1ccc2c(c1)N(C[C@@H](C)CN(C)C)c1ccccc1S2
u: µM
value.measured: 101
--
smiles.string: CN(C)CCCN1c2ccccc2CCc2ccccc21
u: µM
value.measured: 166
--
smiles.string: NCCCN1c2ccccc2Sc2ccccc21
u: µM
value.measured: 14.7
